Documented inhibition across a set of molecules
Species on record: Cavia porcellus
protocol summary: Inhibition of guinea pig classical complement system assessed as hemolysis of sensitized sheep erythrocytes at 1000 uM
Provide only the numeric value, understood in %.

Look over these answered cases.
O=c1cc(-c2ccc(O)c(O)c2)oc2cc(O[C@@H]3O[C@H](CO)[C@@H](O)[C@H](O)[C@H]3O)cc(O)c12 25.2
C[C@@H]1O[C@@H](OC[C@H]2O[C@@H](Oc3c(-c4ccc(O)c(O)c4)oc4cc(O)cc(O)c4c3=O)[C@H](O)[C@@H](O)[C@@H]2O)[C@H](O)[C@H](O)[C@H]1O 54.4
COc1cc(O)c2c(=O)c(O)c(-c3ccc(OC)c(O)c3)oc2c1 24.3

Then there is this molecule:
Query :: Find the recorded inhibition belonging to O=c1c(O)c(-c2ccc(O)c(O)c2)oc2cc(O)cc(O)c12 and report it.
Result :: 52.5
